Recorded values, source ChEMBL document CHEMBL3588764.

Species: Homo sapiens
Test: Selectivity index, ratio of Ki for human dopamine D2 long receptor to Ki for human dopamine D3 receptor
quantity name: Ratio Ki

smiles representation	endpoint result
CCCN(CCCCNC(=O)/N=N/c1ccc(F)cc1)C1Cc2ccccc2C1	27
CCCN(CCNC(=O)/N=N/c1ccc(F)c(F)c1)C1Cc2ccccc2C1	1.4
COc1ccccc1N1CCN(CCCCNC(=O)/N=N/c2ccc(F)cc2)CC1	13
CCCN(CCNC(=O)/N=N/c1cc(F)c(F)c(F)c1)C1Cc2ccccc2C1	1.3
CCCN(CCCCNC(=O)/C=C/c1ccc(F)cc1)C1Cc2ccccc2C1	61
COc1ccccc1N1CCN(CCCCNC(=O)/N=N/c2cc(F)c(F)c(F)c2)CC1	4.7
CCCN(CCNC(=O)/C=C/c1ccc(F)cc1)C1Cc2ccccc2C1	3.1

###

Biological target: D(2) dopamine receptor (Homo sapiens)
Sequence (P14416 whole entry): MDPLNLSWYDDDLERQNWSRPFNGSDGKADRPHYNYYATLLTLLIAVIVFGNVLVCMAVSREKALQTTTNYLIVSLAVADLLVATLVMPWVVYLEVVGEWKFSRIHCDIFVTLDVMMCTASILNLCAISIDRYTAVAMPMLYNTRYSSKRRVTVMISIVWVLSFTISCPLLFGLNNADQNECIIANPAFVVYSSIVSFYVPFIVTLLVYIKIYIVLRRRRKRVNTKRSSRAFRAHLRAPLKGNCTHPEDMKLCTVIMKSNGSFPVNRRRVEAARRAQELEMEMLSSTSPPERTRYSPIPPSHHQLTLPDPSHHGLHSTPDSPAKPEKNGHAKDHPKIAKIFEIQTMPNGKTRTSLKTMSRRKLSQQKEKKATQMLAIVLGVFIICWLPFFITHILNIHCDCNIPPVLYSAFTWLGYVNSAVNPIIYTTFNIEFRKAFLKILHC
Experiment: Displacement of [3H]spiperone from human dopamine D2 short receptor expressed in CHO cell membranes
Could you mark each record class 1 if its Ki falls strictly under 10 nM, and class 0 if it equals or exceeds it?

smiles representation	qualitative label
CCCN(CCNC(=O)/C=C/c1ccc(F)cc1)C1Cc2ccccc2C1	class 0
COc1ccccc1N1CCN(CCCCNC(=O)/N=N/c2cc(F)c(F)c(F)c2)CC1	class 1
CCCN(CCCCNC(=O)/N=N/c1ccc(F)c(F)c1)C1Cc2ccccc2C1	class 0
COc1ccccc1N1CCN(CCCCNC(=O)/N=N/c2ccc(F)cc2)CC1	class 0
COc1ccccc1N1CCN(CCCCNC(=O)/N=N/c2ccc(F)c(F)c2)CC1	class 0
CCCN(CCCCNC(=O)/C=C/c1ccc(F)cc1)C1Cc2ccccc2C1	class 1
